# assay_system: T1, Human CD24 (human, UniProt P25063 27-59, limits assumed)
# T1 chain (looked up): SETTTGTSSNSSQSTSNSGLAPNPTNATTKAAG
# assay_details: SPR affinity ranking, 1:1 binding, analyte conc. 19.71 nM
Parameter: pKd. Scope: all listed entries.
Note: pKd values are expressed as the negative base-10 logarithm of concentration in M.

{"binder": "Antibody No 6, lead clone of 4451H (HC N35G; LC L33G) (antibody, V domains shown) VH: QVQLVQSGAEVKKPGASVKVSCKASGYDFTGYHMGWVRQAPGQGLEWMGEINPITSDKTFNQKFKSRVTMTRDTSISTAYMELSRLRSDDTAVYYCARRDYGTSLDYWGQGTTVTVSS VL: DIQLTQSPSFLSASVGDRVTITCRASKSISKYGAWYQQKPGKAPKLLIYAGSTLHSGIPSRFRGSGSGTEFTLTISSLQPEDFATYYCQQHNEYPITFGQGTKLEIK", "pKd": 8.29}

query: GET /values?readout=pKd&item= Antibody No 3, lead clone of 4451H (HC N35G; LC L33G, T97I) (antibody, V domains shown) VH: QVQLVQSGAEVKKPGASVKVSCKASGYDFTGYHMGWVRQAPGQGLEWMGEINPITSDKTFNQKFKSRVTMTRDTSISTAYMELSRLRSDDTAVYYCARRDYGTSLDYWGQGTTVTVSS VL: DIQLTQSPSFLSASVGDRVTITCRASKSISKYGAWYQQKPGKAPKLLIYAGSTLHSGIPSRFRGSGSGTEFTLTISSLQPEDFATYYCQQHNEYPIIFGQGTKLEIK
result: 8.15

The reported numbers originate from patent US20260265403A1.
